Every entry's value here was drawn from patent US20120014876A1.

Biological target: rat frizzled-2 receptor (rat, UniProt Q08464 29-570)
Sequence (Q08464 29-570): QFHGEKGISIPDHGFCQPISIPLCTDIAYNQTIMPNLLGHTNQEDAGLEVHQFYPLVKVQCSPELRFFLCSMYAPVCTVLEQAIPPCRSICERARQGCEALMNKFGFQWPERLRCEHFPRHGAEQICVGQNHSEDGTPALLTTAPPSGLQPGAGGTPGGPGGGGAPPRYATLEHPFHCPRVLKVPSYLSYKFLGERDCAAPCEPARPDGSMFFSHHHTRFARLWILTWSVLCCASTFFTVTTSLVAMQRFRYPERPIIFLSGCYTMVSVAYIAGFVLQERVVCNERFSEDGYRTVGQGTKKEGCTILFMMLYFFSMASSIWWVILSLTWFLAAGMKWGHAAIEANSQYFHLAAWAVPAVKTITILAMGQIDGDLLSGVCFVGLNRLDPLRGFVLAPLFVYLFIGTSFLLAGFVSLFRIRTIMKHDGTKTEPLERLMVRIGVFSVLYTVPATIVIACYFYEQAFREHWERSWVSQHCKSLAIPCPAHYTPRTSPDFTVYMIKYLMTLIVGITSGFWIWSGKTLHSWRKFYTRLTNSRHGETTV
Experiment: cell-based or functional assay
Where no end group is shown, it is not given here.
measureName: % of inhibition of Wnt3a-induced luciferase activity, peptide 1.10^-9 M (%)

binder | measured
CAKTSEGMDGCEL-NH2 (cysteine pairing not given here) [UM206 (2 N = A)] | 79.5
CNKTSEGMAGCEL-NH2 (cysteine pairing not given here) [UM206 (9 D = A)] | 60.5
CNKTSEGMDGAEL [UM206 (11 C = A)] | 84.9
ANKTSEGMDGCEL [UM206 (1 C = A)] | 82.6
